- System: PPARg DBDmut IVT, anti-PPARg (DBD mutation: PPARg1 K132A/R137A, NR concentration 270 nM)
- assay_info: PBM binding z-score (relative to random genomic background probes); higher = stronger binding; sequences stand for … in GC…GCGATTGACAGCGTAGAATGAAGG
Give measured PBM binding z-score for each item. Keep answers brief.

Some sequences with known PBM binding z-score results, for comparison:
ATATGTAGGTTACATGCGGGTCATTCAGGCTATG
2.03
CGTCAAAGTTCTAGGTAACGTAACAGAAAGCAGC
0.457
CCAGACAGGTGAAAGGTAACTCACTCTGGTACGC
0.145
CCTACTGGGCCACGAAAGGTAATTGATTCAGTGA
-0.144

Field: PBM binding z-score. Fill in for each record below.
1. TATACAGGATCAAAGGCCAGAGTACGAATGTCGA
2. CCTAGTTGGTCAAGCTCACACACGCTATAGGTAC
3. CAAACTAGGTCACCGGGAGGTCAAAGTCCGCATG
4. ACTAGGAGGACAAAGGTCAGAGCTACGCCAGTGA
5. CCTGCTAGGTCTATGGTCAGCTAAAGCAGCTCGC
6. CCTTACGGGTCCCTGACAGGTTATAGCATTTGGA
7. GATAAAGGGTCAGCTAGAGGCCAGAGTATGGAAA

1: 0.991; 2: 0.393; 3: 0.534; 4: -0.394; 5: -1.11; 6: -1.23; 7: -0.0188

Parameters: items (list). Returns: PBM binding z-score for each item.
1. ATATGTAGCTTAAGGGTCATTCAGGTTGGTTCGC
2. GATACAGGGTCAAGGCCAGAATACGCGTATTGAT
3. CAAACTAGGTCAAAGGTCAAAATCGAGCCAACCA
4. CGTCGGAGGACAACAGGAGGTCAGAGCTGCCAGA

0.663
0.396
3.58
-1.4

Go through the list and state PBM binding z-score for each entry.
1. CCTAGTTGGTCAAGGTCACACATGCTATAGGTAC
2. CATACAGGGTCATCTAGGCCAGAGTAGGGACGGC
3. CAAACTAGGTCACAGAGGTTAAAGTCCGTGCGTA
4. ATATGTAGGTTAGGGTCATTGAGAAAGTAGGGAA
5. CGAACTAGGTCAAAGGCCAGTGAAAGGCGACGTA
6. TCTTGTAGATCAAAGGTCAAGAAAGCCGAAGCCT
7. TAGCCAAGGTCAGATCGGGCCAGTATACGCTATA

1: 1.14; 2: 0.152; 3: 4.73; 4: 1.4; 5: 0.408; 6: 0.612; 7: -0.254
